B1: Steroid hormone receptor ERR2, residues 100 to 176; numbered along this chain, O95718 (parent)
chain: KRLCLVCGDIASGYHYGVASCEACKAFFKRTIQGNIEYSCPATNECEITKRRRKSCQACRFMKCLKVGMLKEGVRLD

Variants of: B1
experiment: abundance fitness (aPCA) (normalised: wild type 0, dead -1); higher = more abundant; growth selection in yeast, the domain comes from the species named
condition_description: Homo sapiens
For each record, write down the corresponding abundance fitness.
Numbers only.

1. T49C :: -0.948
2. M62I :: -0.148

# abundance fitness lookup, item I32Q
-0.422

Source of measurements: the Human Domainome abundance scans (Beltran et al. 2025)
